Each recorded value in this set is attributed to paper PMC12203577.

targetOrSystem: Lscγ (Pseudomonas syringae pv. actinidiae, UniProt A0A2V0R8Y2)
Construct: 6His-tag (TEV-cleavable) (cleaved yes); made in house; host or cells: E. coli BL21 (DE3)
Sequence (A0A2V0R8Y2 whole entry): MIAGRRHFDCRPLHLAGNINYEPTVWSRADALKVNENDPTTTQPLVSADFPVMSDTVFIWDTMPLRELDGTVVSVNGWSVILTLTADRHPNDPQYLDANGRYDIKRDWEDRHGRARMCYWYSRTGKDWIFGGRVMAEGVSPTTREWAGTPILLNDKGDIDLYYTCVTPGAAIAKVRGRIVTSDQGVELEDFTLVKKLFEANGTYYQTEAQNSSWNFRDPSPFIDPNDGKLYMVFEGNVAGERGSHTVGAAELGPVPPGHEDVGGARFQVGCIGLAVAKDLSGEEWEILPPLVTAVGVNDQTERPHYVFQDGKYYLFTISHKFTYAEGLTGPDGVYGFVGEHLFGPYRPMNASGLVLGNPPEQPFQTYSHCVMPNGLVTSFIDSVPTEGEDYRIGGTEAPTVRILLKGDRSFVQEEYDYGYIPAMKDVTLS
assayExplanation: Sucrose hydrolysis assay on recombinant Lscγ (DNS glucose quantification)
Assay type: biochemical, Pseudomonas syringae pv actinidiae biovar 3 (Psa3)
appliedConditions: 100 μM iminosugar, 60 mM sucrose, pH 7.0
measurementKind: % Residual activity (sucrose hydrolysis), Lscγ (%)
The answer is to be given in %; state only the numeric part.

// solved cases for % Residual activity (sucrose hydrolysis), Lscγ follow
[
  {
    "molecule": "OC[C@@H]1[C@@H](O)[C@H](O)CN1CCO[C@@H]1O[C@H](CO)[C@@H](O)[C@H](O)[C@H]1O [Compound 2]",
    "assayValue": 85
  },
  {
    "molecule": "OC[C@H]1NC[C@@H](O)[C@@H]1O [Compound 1, 1,4-dideoxy-1,4-imino-D-arabinitol]",
    "assayValue": 101
  },
  {
    "molecule": "OCCc1cn(CCCCCCN2C[C@@H](O)[C@H](O)[C@H]2CO)nn1 [Compound 4]",
    "assayValue": 126
  }
]

Consider the record given below.
[ask] Can you share its % Residual activity (sucrose hydrolysis), Lscγ? I mean this molecule: OC[C@@H]1[C@@H](O)[C@H](O)CN1CCCCCCn1cc(COCC(COCc2cn(CCCCCCN3C[C@@H](O)[C@H](O)[C@H]3CO)nn2)(COCc2cn(CCCCCCN3C[C@@H](O)[C@H](O)[C@H]3CO)nn2)COCc2cn(CCCCCCN3C[C@@H](O)[C@H](O)[C@H]3CO)nn2)nn1 [Compound 3]
[reply] 36
